Values were extracted from patent US9359298B2.

Provide the reported IC50 of each item.
Test system: Influenza A virus (hanfang359/95)
Experiment: Determination of anti-influenza virus activity (CPE in MDCK cells)
Assay type: cell-based
Details: Influenza A virus, MDCK, 36 h
Give bare numbers, in µg/mL.

Worked set:
# compound, readout_type, quantitative_readout
rows = [
    ("COc1cc(/C=C/c2ccccc2)cc(OC(=O)c2cccnc2)c1CC=C(C)C [Compound 24l]", "IC50", 1.04),
    ("COc1cc(/C=C/c2cccc(C)c2)c(C(=O)O)c(O)c1CC=C(C)C", "IC50", 0.48),
]

Please tell me: IC50 of COC(=O)c1c(/C=C/c2ccccc2)cc(OC)c(CC=C(C)C)c1OC(=O)CN(C)C [Compound 24m] , system Influenza A virus (hanfang359/95)? 6.52

###

Tested on: Coxsackie virus B6
Assay: Coxsackie virus activity assay (CPE in Vero cells)
Type: cell-based
Settings: Vero, read-out: COX-B6 IC50, Vero cells, about 100TCID50, CPE, Reed-Muench
Lab note: anything with IC50 below 0.9 µg/mL is marked yes; values at 0.9 µg/mL or higher are marked no.

Solved cases (7 shown):
# compound, label_class
rows = [
    ("COC(=O)c1c(/C=C/c2c(OC)cccc2OC)cc(OC)c(CC=C(C)C)c1O", "no"),
    ("COC(=O)c1c(/C=C/c2cc(OC)ccn2)cc(OC)c(CC=C(C)C)c1O", "no"),
    ("COc1cc(/C=C/c2ccccc2)cc(OC(=O)CN)c1CC=C(C)C [Compound 24c]", "no"),
    ("COc1cc(/C=C/c2ccccc2)c(C(=O)O)c(OC)c1CC=C(C)C", "no"),
    ("COc1cc(/C=C/c2ccc(O)cc2)c(C(=O)O)c(O)c1CC=C(C)C", "yes"),
    ("COc1cc(/C=C/c2cccc(O)n2)cc(O)c1CC=C(C)C [10g′]", "yes"),
    ("COc1cc(/C=C/c2ccncc2)cc(O)c1CC=C(C)C [Compound 10r]", "no"),
]

Okay, now this compound:
Take the compound COC(=O)c1c(/C=C/c2ccccc2)cc(OC)c(CC=C(C)C)c1OC(=O)CN [Compound 24a] and say whether its IC50 is less than 0.9 µg/mL. no

###

Provide the reported IC50 of each item.
System: Coxsackie virus B6
Experiment: Coxsackie virus activity assay (CPE in Vero cells)
Format: cell-based
Conditions: Vero, read-out: COX-B6 IC50, Vero cells, about 100TCID50, CPE, Reed-Muench
Give bare numbers, in mg/L.

# compound, readout_type, readout_unit, quantitative_readout
rows = [
    ("COc1ccc(/C=C/c2cc(OC)c(CC=C(C)C)c(O)c2C(=O)O)cc1", "IC50", "mg/L", 1.6),
    ("COc1cc(/C=C/c2ccccc2)cc(OC(=O)C2CCCN2)c1CC=C(C)C (centres unmarked) [Compound 24f]", "IC50", "mg/L", 0.21),
    ("COc1cc(/C=C/c2cc(O)ccn2)cc(O)c1CC=C(C)C [10a′]", "IC50", "mg/L", 0.41),
    ("COc1cc(/C=C/c2cc(O)cc(O)n2)cc(O)c1CC=C(C)C [10e′]", "IC50", "mg/L", 1.21),
]

Now look at this entry.
Need IC50 of COc1c(Cl)c(/C=C/c2ccccc2)cc(O)c1CC=C(C)C [Compound 10s] , thanks. 4.35
